Tested on: Enterobacter RO 154
Assay: MIC, in vitro dilution method, Enterobacter RO 154 (Table III)
Assay type: cell-based
Conditions: RO154; Enterobacter RO 154; dilution method; read-out: MIC
measured.parameter: MIC (µg/mL)

- CC(C)(ON=C(C(=O)NC1C(=O)N2C(C(=O)O)=C(CSC(=O)c3cccc(NC(=O)CN)c3)C[S+]([O-])C12)c1csc(N)n1)C(=O)O (stereo not shown): 2
- CNCCCCC(=O)OCC1=C(C(=O)O)N2C(=O)C(NC(=O)/C(=N\OC(C)(C)C(=O)O)c3csc(N)n3)C2[S+]([O-])C1 (stereo not shown): 2
- Cc1cc(C(=O)SCC2=C(C(=O)O)N3C(=O)C(NC(=O)C(=NOC(C)(C)C(=O)O)c4csc(N)n4)C3[S+]([O-])C2)ccc1CN (stereo not shown): 1
